Experiment: photoluminescence quantum yield (fraction); solvent given as SMILES
Settings: in ClC(Cl)Cl
readout_type: photoluminescence quantum yield

CCCCCCc1ccc(-n2c3c4cccc(OC)c4nc(-c4ccc(OC)cc4)c3c3c2c2c(-c4ccc(OC)cc4)nc4c(OC)cccc4c2n3-c2ccc(CCCCCC)cc2)cc1 ... 0.042
CCC1=C(C)C2=Cc3cc4c(cc3B(O)N2C1=O)OCO4 ... 0.61
O=C1Cc2cc3c(cc2CCCc2ccc(cc2)CCC3)CC(=O)Cc2ccc(c3nsnc23)C1 ... 0.05
CCCCCCCCCCOc1cc(OCCCCCCCCCC)cc(C2=C3C(/C=C/c4ccc(N(C)C)cc4)=C(C#Cc4ccc(C(C)(C)C)cc4)C(/C=C/c4ccc(N(C)C)cc4)=[N+]3[B-](F)(F)n3c(/C=C/c4ccc(N(C)C)cc4)c(C#Cc4ccc(C(C)(C)C)cc4)c(/C=C/c4ccc(N(C)C)cc4)c32)c1 ... 0.05

(1) CC1(C)CC[N+]2=c3c(cc4c(c31)Oc1cc3c(cc1C=4c1ccccc1C(=O)O)C(c1ccccc1C(=O)O)=c1cc4c5c(c1O3)C(C)(C)CC[N+]=5CCC4)CCC2
(2) CC(C)(C)c1ccc(C2=c3sc(-c4ccc(C(C)(C)C)cc4)cc3=[N+]3C2=Nc2c(-c4ccc(C(C)(C)C)cc4)c4sc(-c5ccc(C(C)(C)C)cc5)cc4n2[B-]3(F)F)cc1
stdin: Between 1 and 2 , whose recorded photoluminescence quantum yield is greater? Choose, then provide that item's label.
stdout: 1

###

Assay: photoluminescence quantum yield (fraction); solvent given as SMILES
Settings: in CC#N
readout_type: photoluminescence quantum yield

Worked cases, answers included:
CCCCNc1nn(-c2ccc(OC)cc2)nc1C#N ... 0.918
CCCCCCCCCCCn1cccc1C1=[N+]2C(=Cc3c(C)cc(C)n3[B-]2(F)F)c2ccccc21 ... 0.99
Cc1ccc(-c2ccc(/C=C/c3cccs3)cn2)nc1 ... 0.042
CN(C)c1ccc(C2=Nc3sc4cc(Cl)ccc4[n+]3[B-](F)(F)O2)cc1 ... 0.12
COC(=O)C[C@H](NC(=O)[C@H](Cc1c[nH]c2ccccc12)NC(=O)OC(C)(C)C)C(=O)OC ... 0.36
CSc1sc(C(C)=O)c2nn[nH]c(=O)c12 ... 0.017
O=C(O)CC[N+]1=c2cc3c(cc2CCC1)=Cc1c(c2cc4c5c(c2oc1=O)CCCN5CCC4)O3 ... 0.025
COc1ccc(-n2nc(C#N)c(N3CCC(N4CCCCC4)CC3)n2)cc1 ... 0.156

(1) C=C[C@]12CC[C@H](CC1)N=N2
(2) C=CC(=O)Oc1ccc2cc(C=C)c(=O)oc2c1
(3) Cc1ccc(C)n1-c1ccccc1
stdin: Sort by photoluminescence quantum yield, descending. List labels; respect the requested ordering.
stdout: 2, 3, 1

###

Assay: photoluminescence quantum yield (fraction); solvent given as SMILES
Settings: in ClC(Cl)Cl
readout_type: photoluminescence quantum yield

CCN(CC)c1ccc2cc(-c3ccc(-c4ccc5ccc6c(-c7ccc(-c8cc9ccc(N(CC)CC)cc9oc8=O)cc7)ccc7ccc4c5c76)cc3)c(=O)oc2c1 ... 0.893

(a) N#Cc1coc2ccccc2c1=O
(b) COc1ccc(C2=Cc3ccc4ccccc4[n+]3[B-](F)(F)O2)cc1
stdin: Between a and b , whose recorded photoluminescence quantum yield is greater? Choose, then provide that item's label.
stdout: b

###

Assay: photoluminescence quantum yield (fraction); solvent given as SMILES
Settings: in C1COCCO1
readout_type: photoluminescence quantum yield

CCC1=C(C2=C(C3=C(CC)S(=O)(=O)c4cc(-c5ccc(C(C)=O)s5)ccc43)C(F)(F)C(F)(F)C2(F)F)c2ccc(-c3ccc(C(C)=O)s3)cc2S1(=O)=O ... 0
COC(=O)C(Cc1ccc2oc(-c3ccc(N(C)c4ccccc4)cc3)nc2c1)NC(=O)OC(C)(C)C (centres undefined) ... 0.73
COc1ccc(/C=C/C=C/C=C/c2ccc([N+](=O)[O-])cc2)cc1 ... 0.57
CCCCCN(c1ccccc1)c1ccc2c(c1)C(CC)(CC)c1cc(/C=C/c3ccc(/C=C(\C#N)C(=O)O)s3)ccc1-2 ... 0.969
COC(=O)C(Cc1ccc2oc(-c3ccc(N(C)C)cc3)nc2c1)NC(=O)OC(C)(C)C (centres undefined) ... 1
CN(C)c1ccc(/C=C/c2ccc([N+](=O)[O-])c(O)c2)cc1 ... 0.02
O=C(O)c1cc2c(ccc3ccccc32)oc1=O ... 0.53
Cn1cc(/C=C/C(=O)c2ccccc2)c2ccccc21 ... 0.114
CN(CC(O)c1cccc(O)c1)c1ccc([N+](=O)[O-])c(C2CC(c3cccc4ccccc34)=NN2c2ccccc2)c1 (centres undefined) ... 0.5
O=C1OC(c2ccccc2)=C/C1=C\c1ccc([N+](=O)[O-])cc1 ... 0.083

(a) NS(=O)(=O)c1ccc(N2N=C(c3ccc(O)cc3)CC2c2ccc(Br)cc2)cc1 (centres undefined)
(b) O=S(=O)([O-])c1ccc(O)c2ccccc12
stdin: Between the entries labeled a and b , whose measured photoluminescence quantum yield is lower? Choose, then provide that item's label.
stdout: b

###

Experiment: photoluminescence quantum yield (fraction); solvent given as SMILES
Settings: in Cc1ccccc1
readout_type: photoluminescence quantum yield
Answer using only a numeral; do not append any unit.

COc1ccc2c3c(c4ccc(OC)cc4c2c1)=[N+]1C(=C(c2c(C)cc(C)cc2C)c2cc4c5ccc(OC)cc5c5cc(OC)ccc5c4n2[B-]1(F)F)C=3 ... 0.54

stdin: I have this compound here, "Cc1nc(-c2ccc(N3c4ccccc4C(c4ccccc4)(c4ccccc4)c4ccccc43)cc2)cc(-c2ccc(N3c4ccccc4C(c4ccccc4)(c4ccccc4)c4ccccc43)cc2)n1" , and I need its recorded photoluminescence quantum yield.
stdout: 0.54

stdin: I have this compound here, "N#C/C(=C\c1ccncc1)c1nc(-c2ccccc2)cs1" , and I need its recorded photoluminescence quantum yield.
stdout: 0.346

stdin: I have this compound here, "Oc1ccccc1-c1nc2c3ccccc3c3ccccc3c2n1-c1ccccc1" , and I need its recorded photoluminescence quantum yield.
stdout: 0.001

stdin: I have this compound here, "Cc1nnc(-c2ccc(-n3c4ccccc4c4ccccc43)cc2)o1" , and I need its recorded photoluminescence quantum yield.
stdout: 0.55

stdin: I have this compound here, "COc1ccc(-c2nc(C)cc(-c3ccc(-n4c5ccccc5c5ccccc54)cc3)n2)cc1" , and I need its recorded photoluminescence quantum yield.
stdout: 0.46

stdin: I have this compound here, "CC(C)(C)c1ccc2oc(-c3ccc(-c4nc5cc(C(C)(C)C)ccc5o4)s3)nc2c1" , and I need its recorded photoluminescence quantum yield.
stdout: 1

stdin: I have this compound here, "CC(C)(C)c1ccc2c3c(c4ccc(C(C)(C)C)cc4c2c1)=[N+]1C(=C(c2ccccc2)c2c(Br)c4c5ccc(C(C)(C)C)cc5c5cc(C(C)(C)C)ccc5c4n2[B-]1(F)F)C=3Br" , and I need its recorded photoluminescence quantum yield.
stdout: 0.03

stdin: I have this compound here, "CCn1c2ccccc2c2cc(C#Cc3cc(C#Cc4ccc5c(c4)c4ccccc4n5CC)nc(C#N)n3)ccc21" , and I need its recorded photoluminescence quantum yield.
stdout: 0.81

stdin: I have this compound here, "CC(C)(C)c1ccc2c(c1)c1cc(C(C)(C)C)ccc1n2-c1cc(C(=O)c2ccccn2)cc(-n2c3ccc(C(C)(C)C)cc3c3cc(C(C)(C)C)ccc32)c1" , and I need its recorded photoluminescence quantum yield.
stdout: 0.072

stdin: I have this compound here, COC1(OC)C2(Cl)c3nc4cc(-c5cccs5)ccc4nc3C1(Cl)C1C[C@H]3[C@@H](CC12)C1(Cl)c2nc4ccc(-c5cccs5)cc4nc2C3(Cl)C1(OC)OC (stereo not given in full) , and I need its recorded photoluminescence quantum yield.
stdout: 0.13

stdin: I have this compound here, "Cc1cc(C)c(B(c2ccc(-n3c4ccccc4c4ccccc43)cc2)c2c(C)cc(C)cc2C)c(C)c1" , and I need its recorded photoluminescence quantum yield.
stdout: 0.75

stdin: I have this compound here, "O=P1(c2ccccc2)c2ccc(N3c4ccccc4Sc4ccccc43)cc2-c2cc(N3c4ccccc4Sc4ccccc43)ccc21" , and I need its recorded photoluminescence quantum yield.
stdout: 0.59

stdin: I have this compound here, "Cc1ccccc1-c1cc(-c2ccc(N3c4ccccc4C(C)(C)c4ccccc43)cc2)nc(-c2ccccc2)n1" , and I need its recorded photoluminescence quantum yield.
stdout: 0.777

stdin: I have this compound here, "Cc1c(C2=[N+]3C(=Cc4c(C)c5ccccc5n4[B-]3(F)F)c3ccccc32)[nH]c2ccccc12" , and I need its recorded photoluminescence quantum yield.
stdout: 0.14

###

Assay: photoluminescence quantum yield (fraction); solvent given as SMILES
Details: in CS(C)=O
readout_type: photoluminescence quantum yield

Worked cases, answers included:
COc1cccc2cc(-c3ccc([N+](=O)[O-])cc3)c(=N)oc12 ... 0.0021
Cc1ccc(N/C=C/C=[NH+]c2ccc(C)cc2)cc1 ... 0.14
CCCN(c1ccccc1)c1ccc2c(c1)C(CC)(CC)c1cc(/C=C/c3ccc(/C=C(\C#N)C(=O)O)s3)ccc1-2 ... 0.611
CC(=O)Nc1ccc(O)cc1 ... 0.0022
c1cnc2c(c1)c1nc(-c3ccc(-c4nc5c6cccnc6c6ncccc6c5[nH]4)cc3)[nH]c1c1cccnc12 ... 0.84

(a) CCCN1/C(=C/C=C/C=C/C2=[N+](CCC)c3ccccc3C2(C)C)C(C)(C)c2ccccc21
(b) N#Cc1cc2ccc(O)cc2oc1=N
(c) COc1cc(OC)cc(C2=C3C(C)=C(I)C(C)=[N+]3[B-](F)(F)n3c(/C=C/c4c[nH]c5ccccc45)c(I)c(C)c32)c1
stdin: Sort (3 molecules) by photoluminescence quantum yield: min first. List labels; respect the requested ordering.
stdout: b, c, a

(a) COc1cc2sc3nc(-c4ccccc4)sc3c2cc1OC
(b) COc1cc(/C=C/C(=O)CC(=O)/C=C/c2ccc(O)c(OC)c2)ccc1O
stdin: Between a and b , whose recorded photoluminescence quantum yield is greater? Choose, then provide that item's label.
stdout: a
(a: 0.52, b: 0.024)

(I) O=S(=O)([O-])c1ccc(O)c2ccccc12
(II) Cn1c(=O)c(/N=N/c2ccc(/N=N/c3ccc(S(=O)(=O)O)cc3)cc2)c(O)c2ccccc21
(III) CSc1sc(C(C)=O)c2nn[nH]c(=O)c12
stdin: Sort by photoluminescence quantum yield, descending. List labels; respect the requested ordering.
stdout: I, II, III
(I: 0.25, II: 0.05, III: 0.0048)

(1) Clc1ccc(-c2nc3ccccc3c3cc4ccccn4c23)s1
(2) CCN1/C(=C/C=C/C2=[N+](C)c3ccccc3C2(C)C)C(C)(C)c2ccccc21
(3) CCC1=C(C)C2=Cc3c4ccccc4c4n3[B-](c3cc[n+](C)cc3)(Oc3ccccc3-4)[N+]2=C1C=Cc1ccc(OC)cc1 (stereo unspecified)
stdin: Sort (3 molecules) by photoluminescence quantum yield: min first. List labels; respect the requested ordering.
stdout: 2, 1, 3
(2: 0.07, 1: 0.11, 3: 0.26)
